Tested on: CAKI-1 renal
Assay: NCI tumour cell line growth inhibition, 48 h
TGI for assorted molecules
attribute measured: TGI

* CC[P+]1(c2ccccc2)[C@@H](C)CC[C@@H]1C | > 100 µM
* CCS(=O)(=O)c1ccc(OC)c(Nc2ncc(-c3ccccc3Cl)o2)c1 | > 25 µM
* CC(C)(C)OC(=O)CN1CCN(CC(=O)N2CCN(C(=O)OCc3ccccc3)CC2)CCN(CC(=O)OC(C)(C)C)CCN(CC(=O)N2CCN(C(=O)OCc3ccccc3)CC2)CC1 | 23.4 µM
* N#Cc1c(-c2ccc(Cl)cc2)c2c(N=Nc3c(O)ccc4ccccc34)[nH]nc2[nH]c1=O | 1.26 µM
* NNC(=O)c1ccc(OCc2nc3ccccc3[nH]2)cc1 | > 100 µM
* NCCCCCCNCc1cccc2ccccc12 | > 100 µM
